Data provenance: patent US6977262B2

Where a name gives a salt, the structure may show the parent alone.
PROPERTY: melting point (°C)
Answer with a number only, understood to be in °C.

Kindly note the recorded melting point for CCCC1=C(C(=O)OCC)C(c2cccc3nsnc23)c2c[nH]nc2N1 (centres unmarked) , which is 180

Kindly note the recorded melting point for CN1CCOC(C2=C(C#N)C(c3cccc(C#N)c3Br)c3c[nH]nc3N2)C1 (centres unmarked) (as salt: trifluoroacetate) , which is 180

Kindly note the recorded melting point for Cc1cccc(C2C(C#N)=C(C3CC3)Nc3n[nH]cc32)c1[N+](=O)[O-] (centres unmarked) , which is 265

====

Property: melting point; scope: individual compounds

Example entries begin here.
>>> result("CCC1=C(C#N)C(c2ccccc2Cl)c2c[nH]nc2N1 (stereo not drawn)")
"> 300 °C"
>>> result("N#CC1=C(CN2C(=O)c3ccccc3C2=O)Nc2n[nH]cc2C1c1ccccc1Cl (stereo not drawn)")
"> 250 °C"

Proceed to the following item.
Kindly note the recorded melting point for CCCC1=C(C(=O)OCC)C(c2ccccc2Cl)c2cn(C)nc2N1 (stereo not drawn) , which is 150 to 151 °C
